# experimental_protocol: oral bioavailability in dogs
# Type: in vivo
# condition_description: dog, in vivo; unformulated solid in a capsule dosage form; 5 mg/kg oral dose in dogs; read-out: bioavailability
property: bioavailability

If you can, please state the reported bioavailability value of CC(C)c1nc(CN(C)C(=O)NC(C(=O)NC(Cc2ccccc2)CC(O)C(Cc2ccccc2)NC(=O)OCc2cncs2)C(C)C)cs1 (stereo not shown) [bis-tosylate of a compound of formula I] .
< 2%
